All values here come from patent US4826819A.

# Tested target: K (Kappa) opioid receptor (K sites) (Cavia porcellus, UniProt P41144)
# Construct: performed on fresh guinea pig brain homogenate; from tissue; host or cells: guinea pig whole brain without cerebellum, homogenate
# Sequence (P41144 whole entry): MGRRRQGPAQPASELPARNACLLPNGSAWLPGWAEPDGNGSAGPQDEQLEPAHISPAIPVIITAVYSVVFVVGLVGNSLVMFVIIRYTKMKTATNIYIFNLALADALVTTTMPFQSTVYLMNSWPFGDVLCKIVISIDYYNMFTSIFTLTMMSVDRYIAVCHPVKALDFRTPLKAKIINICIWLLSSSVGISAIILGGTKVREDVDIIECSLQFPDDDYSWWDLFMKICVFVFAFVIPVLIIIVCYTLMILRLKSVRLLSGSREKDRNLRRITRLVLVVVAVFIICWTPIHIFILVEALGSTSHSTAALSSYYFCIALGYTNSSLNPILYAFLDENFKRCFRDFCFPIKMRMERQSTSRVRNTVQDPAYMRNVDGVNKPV
# Assay protocol: Opiate receptor binding to K sites (tritiated Ethylketocyclazocine)
# Set-up: species or system guinea pig
# Measurement setup: guinea pig brain homogenate, tritiated Ethylketocyclazocine with 100 nM DADLE and 100 nM DAGO, 25° C., 40 min; read-out: Ki, opiate receptor binding, K
Structures can show the parent of a compound that is named as a salt.
Give Ki for every item shown.
Lab book: enter the figure in nM, no units written.

Provide the reported Ki (system: K (Kappa) opioid receptor (K sites) (Cavia porcellus, UniProt P41144)) for O=C(Cc1ccc([N+](=O)[O-])cc1)N1CCCCC1CN1CCCC1 (racemic) [Example 4, hydrochloride] 37.9

Check K (Kappa) opioid receptor (K sites) (Cavia porcellus, UniProt P41144) data and give Ki for O=C(Cc1ccc(Br)cc1)N1CCCCC1CN1CCCC1 (racemic) [Example 6, hydrochloride] . 6.61

# assay system K (Kappa) opioid receptor (K sites) (Cavia porcellus, UniProt P41144): give Ki of O=C(Cc1cccc(C(F)(F)F)c1)N1CCCCC1CN1CCCC1 (racemic) [Example 2, hemihydrate] 3.07
